Test system: human SMAD7 mRNA
ASSAY_METHOD_TEXT: Antisense inhibition of human SMAD7 mRNA expression in Hep3B cells by 3-10-3 cEt gapmers, 10,000 nM, electroporation (Example 2)
Type: cell-based
CONDITION_PARAMETERS: Hep3B cells, electroporation, 10,000 nM antisense oligonucleotide, approximately 24 hours, RTS5062, relative to untreated control cells
Strand notation (5' to 3'): a small letter for the sugar, then the base; units joined by * are phosphorothioate-linked, units joined directly phosphodiester-linked; [ ] holds rarer units or linkages, { } end groups; capitals alone tell only the bases. k = constrained ethyl (cEt); [5mC] = 5-methylcytosine; d = 2'-deoxy (DNA)
Binary call on % inhibition of SMAD7 mRNA expression: Yes from 30% upward, No beneath that.

- 799797 (kG*kA*k[5mC]*dA*dT*dT*dA*dG*dA*dT*dA*d[5mC]*dT*kG*kT*k[5mC]; antisense) [compound 799797]: No
- 799752 (antisense kT*kT*kA*dA*dA*dA*d[5mC]*dT*dG*dA*dG*d[5mC]*dT*kA*kA*kT) [compound 799752]: No
- 799833 (antisense kT*kT*kT*d[5mC]*dT*dG*dA*dA*d[5mC]*dA*dG*dA*dG*kT*k[5mC]*k[5mC]) [compound 799833]: Yes
- 799732 (antisense kG*kG*kG*dA*dT*d[5mC]*dA*dG*dG*dT*dG*dA*dG*kT*kG*kT) [compound 799732]: Yes
- 799615 (kG*kG*kA*dG*dA*dG*dG*dA*d[5mC]*d[5mC]*dG*dG*d[5mC]*k[5mC]*kT*kT; antisense) [compound 799615]: No
- 799700 (antisense k[5mC]*kA*kT*dG*dA*d[5mC]*dA*dG*d[5mC]*dA*dA*dA*dG*k[5mC]*kA*kA) [compound 799700]: Yes
- 799541 (kT*kT*kA*dA*dT*dG*dA*d[5mC]*dA*d[5mC]*d[5mC]*dA*dA*kA*kG*kT; antisense) [compound 799541]: Yes
- 799775 (kA*k[5mC]*kA*d[5mC]*dA*dA*dG*dA*dG*dG*dG*dA*dA*kG*k[5mC]*k[5mC]; antisense) [compound 799775]: No
- 799543 (kT*k[5mC]*kA*dA*dA*dT*dG*d[5mC]*dA*dT*dG*dA*dG*kT*kT*kA; antisense) [compound 799543]: Yes
- 772801 (kG*kA*k[5mC]*dA*dA*dA*d[5mC]*d[5mC]*dT*dT*d[5mC]*d[5mC]*dG*kA*kA*kA; antisense) [compound 772801]: Yes
- 799812 (antisense k[5mC]*kA*kG*dA*d[5mC]*dA*dG*d[5mC]*dT*dA*dA*dT*d[5mC]*kT*kG*k[5mC]) [compound 799812]: Yes
- 799795 (k[5mC]*k[5mC]*kA*dG*dA*dT*dG*dT*dT*dT*d[5mC]*d[5mC]*d[5mC]*k[5mC]*kA*k[5mC]; antisense) [compound 799795]: Yes
- 799498 (antisense kT*k[5mC]*kA*dA*dG*dA*dA*d[5mC]*dT*d[5mC]*dT*d[5mC]*d[5mC]*kT*kA*kA) [compound 799498]: Yes
- 799660 (antisense kT*kG*kG*dG*dA*dG*d[5mC]*dA*d[5mC]*dT*dT*d[5mC]*dT*kT*kT*kT) [compound 799660]: Yes
- 799616 (kG*kG*k[5mC]*dT*d[5mC]*d[5mC]*dT*dA*d[5mC]*d[5mC]*d[5mC]*dG*d[5mC]*k[5mC]*k[5mC]*kA; antisense) [compound 799616]: Yes
- 799672 (antisense kA*k[5mC]*kA*dG*dG*dA*dT*dG*dG*dA*dG*d[5mC]*dA*kA*kT*kG) [compound 799672]: Yes
- 799638 (kA*kG*kT*d[5mC]*dA*dG*dG*d[5mC]*dA*d[5mC]*dA*dG*dA*k[5mC]*kT*kG; antisense) [compound 799638]: Yes
- 799715 (antisense k[5mC]*k[5mC]*kT*d[5mC]*dA*dG*dG*dG*d[5mC]*dT*dG*d[5mC]*d[5mC]*kA*k[5mC]*k[5mC]) [compound 799715]: Yes

* * *

System: human SMAD7 mRNA
ASSAY_METHOD_TEXT: Dose-dependent inhibition of human SMAD7 mRNA expression in Hep3B cells (Example 3, Study 1 and 2)
Format: cell-based
CONDITION_PARAMETERS: 20000.0 nM, electroporation, approximately 16 hours, Study 1
Strand notation (5' to 3'): a small letter for the sugar, then the base; units joined by * are phosphorothioate-linked, units joined directly phosphodiester-linked; [ ] holds rarer units or linkages, { } end groups; capitals alone tell only the bases. e = 2'-O-(2-methoxyethyl) (MOE); [5mC] = 5-methylcytosine; d = 2'-deoxy (DNA)
Listed substances paired with reported % inhibition of SMAD7 mRNA expression
MEASUREMENT_TYPE: % inhibition of SMAD7 mRNA expression (%)

- 771944 (antisense eG*eG*eT*eA*eA*dT*dT*dT*dT*d[5mC]*d[5mC]*dT*d[5mC]*dA*dA*e[5mC]*eA*eG*eG*e[5mC]) [compound 771944]: 48
- 771583 (antisense eT*eG*e[5mC]*eT*e[5mC]*d[5mC]*dT*dG*dG*d[5mC]*dA*dG*d[5mC]*dT*dG*e[5mC]*eT*eG*eG*eG) [compound 771583]: 59
- 771705 (antisense eA*eA*eT*eG*e[5mC]*d[5mC]*d[5mC]*dT*dT*dT*dG*dA*dG*dT*dT*eT*e[5mC]*e[5mC]*e[5mC]*e[5mC]) [compound 771705]: 9
- 771407 (antisense eA*eG*eG*eA*eG*d[5mC]*dG*dA*dA*d[5mC]*dA*dT*dG*dA*d[5mC]*e[5mC]*eT*e[5mC]*e[5mC]*eG) [compound 771407]: 46
- 771734 (antisense e[5mC]*eT*e[5mC]*eA*eA*dA*d[5mC]*d[5mC]*dT*dT*dT*d[5mC]*dA*dG*dA*e[5mC]*e[5mC]*eA*eT*e[5mC]) [compound 771734]: 53
- 771479 (antisense eG*eG*eG*eA*eA*d[5mC]*dA*d[5mC]*d[5mC]*dT*dT*dG*dT*dG*dT*eA*e[5mC]*e[5mC]*eA*eA) [compound 771479]: 74
- 278478 (antisense eA*e[5mC]*eA*eT*eG*dA*d[5mC]*d[5mC]*dT*d[5mC]*d[5mC]*dG*d[5mC]*dA*d[5mC]*eA*e[5mC]*e[5mC]*eA*eT) [compound 278478]: 22

* * *

Test system: human SMAD7 mRNA
ASSAY_METHOD_TEXT: Antisense inhibition of human SMAD7 mRNA expression in Hep3B cells by 5-10-5 MOE gapmers, single concentration, electroporation, RT-PCR (Example 1, Study 1 and 2)
Assay type: cell-based
CONDITION_PARAMETERS: Study 2, electroporation with 15,000 nM antisense oligonucleotide, 5-10-5 MOE gapmers targeting SEQ ID NO: 1 and 2
Method: Antisense oligonucleotides were designed to target human SMAD7 mRNA and were tested for their effects on SMAD7 mRNA expression in vitro. […] After a treatment period of approximately 24 hours, RNA was isolated from the cells and SMAD7 mRNA levels were measured by quantitative real-time PCR. […] SMAD7 mRNA levels were adjusted according to total RNA content, as measured by RIBOGREEN®. […]
Strand notation (5' to 3'): a small letter for the sugar, then the base; units joined by * are phosphorothioate-linked, units joined directly phosphodiester-linked; [ ] holds rarer units or linkages, { } end groups; capitals alone tell only the bases. e = 2'-O-(2-methoxyethyl) (MOE); [5mC] = 5-methylcytosine; d = 2'-deoxy (DNA)
Binary call on % Inhibition: T from 10% upward, F beneath that.

• 771436 (eG*eA*eG*e[5mC]*eA*dG*d[5mC]*dA*dG*d[5mC]*dT*d[5mC]*d[5mC]*dA*dG*e[5mC]*eT*eG*e[5mC]*e[5mC]; antisense) [compound 771436] = T
• 771708 (antisense eG*eG*eA*eT*eA*dA*dA*dA*dG*dG*dA*dA*dA*dG*dG*eA*eG*eT*eT*eT) [compound 771708] = F
• 771903 (antisense eT*eG*e[5mC]*e[5mC]*eA*dA*d[5mC]*d[5mC]*d[5mC]*d[5mC]*dA*dG*dA*dG*dG*eT*eG*eA*eG*e[5mC]) [compound 771903] = T
• 771823 (antisense e[5mC]*eT*eT*e[5mC]*e[5mC]*d[5mC]*dA*dT*dG*dT*dG*dA*d[5mC]*d[5mC]*dT*e[5mC]*eA*eG*eG*eG) [compound 771823] = T
• 771756 (antisense e[5mC]*e[5mC]*eA*eG*eG*d[5mC]*dA*dA*d[5mC]*d[5mC]*d[5mC]*d[5mC]*dA*dG*dA*e[5mC]*e[5mC]*eT*eG*e[5mC]) [compound 771756] = T
• 771787 (antisense eA*eA*eG*eA*eA*dG*dA*dA*dG*dG*dA*dG*d[5mC]*dT*d[5mC]*eA*eA*eA*e[5mC]*eT) [compound 771787] = T
• 771807 (antisense eG*e[5mC]*e[5mC]*e[5mC]*eT*d[5mC]*dA*d[5mC]*dT*d[5mC]*d[5mC]*dA*d[5mC]*dA*dA*eT*eG*eG*e[5mC]*eA) [compound 771807] = T
• 771860 (antisense e[5mC]*eT*eG*eG*e[5mC]*dT*d[5mC]*dA*dG*dA*dG*dG*d[5mC]*dT*dG*e[5mC]*eA*eG*eT*eG) [compound 771860] = T
• 771846 (antisense e[5mC]*eA*eT*eA*eT*dT*dT*dG*d[5mC]*dT*d[5mC]*d[5mC]*dA*dT*dA*eA*eA*e[5mC]*eA*eA) [compound 771846] = F
• 771763 (antisense e[5mC]*e[5mC]*e[5mC]*e[5mC]*eG*dT*d[5mC]*d[5mC]*dA*d[5mC]*dG*dG*dA*dA*d[5mC]*eG*eG*eA*eT*e[5mC]) [compound 771763] = T
• 771692 (antisense e[5mC]*e[5mC]*e[5mC]*eA*eG*dG*dA*dG*dG*dG*dT*dA*dT*dG*d[5mC]*eA*e[5mC]*eA*e[5mC]*eT) [compound 771692] = T
• 771854 (antisense eT*e[5mC]*e[5mC]*e[5mC]*e[5mC]*dG*d[5mC]*d[5mC]*dT*dT*dT*dT*d[5mC]*dT*dT*e[5mC]*e[5mC]*eT*eG*eG) [compound 771854] = F
• 771814 (antisense eT*e[5mC]*e[5mC]*e[5mC]*eT*dT*dT*dG*d[5mC]*dT*dG*dG*d[5mC]*d[5mC]*d[5mC]*eA*eG*eT*eT*e[5mC]) [compound 771814] = T
• 771926 (antisense eA*e[5mC]*eA*eA*eA*dG*dG*dT*d[5mC]*dT*dG*dT*dG*dT*dG*eG*eA*e[5mC]*eG*e[5mC]) [compound 771926] = T
